assay explanation: Interaction percent with DPPH after 60 minutes was determined at 0.2 mM concentration
Format: functional
readout kind: RA (%)
Please state the figure in %; there is no need to write the unit.

O=c1ccc2ccc(/C=N/c3ccccc3)cc2o1 : 10.6

Q: // RA lookup, key: CO/N=C/c1ccc2ccc(=O)oc2c1
Result: 11.6

Q: Now try O=c1ccc2ccc(/C=N/N=C/c3ccc4ccc(=O)oc4c3)cc2o1 .
Result: 8.4

====

Property: RA; scope: individual compounds
assay explanation: Interaction percent with DPPH after 20 minutes was determined at 0.2 mM concentration
Format: functional
Please state the figure in %; there is no need to write the unit.

O=Cc1ccc2ccc(=O)oc2c1 : 2.49
O=c1ccc2ccc(/C=N/Nc3ccccc3)cc2o1 : 48.9
CC(O)Cc1ccc2ccc(=O)oc2c1 (stereo unspecified) : 18.4
CO/N=C/c1ccc2ccc(=O)oc2c1 : 14.5
O=c1ccc2ccc(/C=N/O)cc2o1 : 3.52

Q: // RA lookup, key: O=c1ccc2ccc(/C=N/c3ccccc3)cc2o1
Result: 13.5
